system: CEM cells HIV-1 protection, formazan growth assay; assay: NCI AIDS Antiviral Assay; settings: measured here: growth of uninfected CEM cells
pIC50: −log10 of the molar value. Where a SMILES comes first, the peptide text is derived from it. The star is where a group is joined. Cbz = O=C(OCc1ccccc1)*; NHNH2 = NN*

molecule	reading_qualifier	pIC50
O=C1CCCCCCC2=C1C(Sc1ccccc1)CC2 (centres undefined)	=	4.51
CCOC(=O)C1NCCc2c1[nH]c1ccccc21 (centres undefined)	=	4.35
O=C1CC2(CC=CCC23OCCO3)CC(CI)O1 (centres undefined)	<	3.70
CCCCN(Cc1ccccc1)C(=NC#N)N(Cc1ccccc1)Cc1ccccc1	<	5.31
COc1ccccc1/C=C/C(=O)c1ccccc1	=	4.95
COC(=O)CC(NC(=O)OCc1ccccc1)C(=O)NC(CC(=O)OC)C(=O)NC(CC(=O)OC)C(=O)NC(CC(=O)OC)C(=O)NC(CC(=O)OC)C(=O)NC(CC(=O)OC)C(=O)NN (centres undefined) (Cbz-D(OMe)D(OMe)D(OMe)D(OMe)D(OMe)D(OMe)-NHNH2; configuration not given here)	<	4.00
O=C(NC(=O)c1ccccc1)Nc1ccccc1	<	4.85
C=CCNC(=S)Nc1ccc(Cl)cc1	=	3.92
CN(c1cn(C2CC[C@@H](CO)O2)c(=O)[nH]c1=O)C1CCCCC1 (some centres undefined)	<	3.70

* * *

tested on: CEM cells HIV-1 protection, formazan growth assay; assay: NCI AIDS Antiviral Assay
pEC50: −log10 of the molar value.
quantity_kind: pEC50

> print(dat)
                                   compound                              assay.target  value.observed
1  CCOP(=O)(OCC)C(NC(=O)OCC(Cl)(Cl)Cl)n1nnc(C(=O)OC)c1C(=O)OC (stereo not given)  CEM cells HIV-1 protection, formazan growth assay          < 3.70
2  C1CCN(C2OC3C(COC3N3CCCCC3)OC2OC2CCO[C@@H]2N2CCCCC2)CC1 (stereo not given in full)  CEM cells HIV-1 protection, formazan growth assay          < 4.41
3  CCCC(Cc1ccccc1)N1CCCC1 (stereo not given)  CEM cells HIV-1 protection, formazan growth assay          < 3.70
4  CC(=O)ON1CCC(n2cc(C)c(=O)[nH]c2=O)C1 (stereo not given)  CEM cells HIV-1 protection, formazan growth assay          < 3.70
5  CCOC(=O)C1c2[nH]c3ccccc3c2CCN1C(=O)c1ccc(OC)o1 (stereo not given)  CEM cells HIV-1 protection, formazan growth assay          < 4.29

* * *

The entries below are paired with their reported IC50.
system: CEM cells HIV-1 protection, formazan growth assay; test: NCI AIDS Antiviral Assay; details: measured here: growth of uninfected CEM cells
quantity_kind: IC50

> print(dat)
                                   compound                              assay.target  quantity.kind  value.observed
1   Cc1ccc(NC(=O)C(=O)Cc2nc3ccccc3o2)c(C)c1  CEM cells HIV-1 protection, formazan growth assay           IC50       > 12.3 µM
2           CCNc1cnc2c(n1)c(=O)n(C)c(=O)n2C  CEM cells HIV-1 protection, formazan growth assay           IC50        > 200 µM
3  COC(=O)C1CC2c3[nH]c4ccccc4c3CCN2C1 (stereo not drawn)  CEM cells HIV-1 protection, formazan growth assay           IC50        > 275 µM

* * *

test system: CEM cells HIV-1 protection, formazan growth assay; assay: NCI AIDS Antiviral Assay; conditions: measured here: growth of uninfected CEM cells
quantity_kind: IC50 (µM)

> print(dat)
                                    compound  reading.qualifier  value.observed
 1  C=CCC(C)C12CCNC(Cc3ccc(O)cc31)C2C (configuration not stated)                  >             200
 2  NCCSSCC(N)C(=O)O (configuration not stated)                  >            58.9
 3              Cc1c(/C=C/C(=O)O)no[n+]1[O-]                  >             200
 4                    O=C1NC(=O)C2(CCCCC2)N1                  >             200
 5     CCOC(=O)c1nc2ccc(C(F)(F)F)cc2[nH]c1=O                  >             200
 6  CCCC(=O)N1CCN(c2ccc3c(c2)OC(C)O3)CC1 (configuration not stated)                  >             200
 7  O=C(CCC(=O)Nc1ccc(Cl)c(Cl)c1)CC(=O)c1ccc(F)cc1                  >            67.6
 8  C=CCc1ccccc1N(C(=O)c1ccccc1)C(C(=O)OCC)c1ccccc1 (configuration not stated)                  >            13.2
 9  COc1ccc(/C=C2\CCC(C)C3=C(c4ccc(OC)c(OC)c4)C(C#N)=C(N)OC32)cc1OC (configuration not stated)                  =            8.32
10  C/C(N)=C/C(=O)c1[nH]c(C(=O)O)cc1C1CCN(Cc2ccccc2)C1=O (configuration not stated)                  =            31.6
11        O=C(N1CCCC1)C1(c2cccc(Cl)c2)CCNCC1                  =             129
12         O=P(OC1=CCCCC1)(c1ccccc1)c1ccccc1                  =            81.3
13                      COc1cccc(-n2cccc2)c1                  >             200
14       Nc1c(Cl)c([N+](=O)[O-])cc2c1OCCCCO2                  =             123
15  O=C(Cn1c(=O)oc2ccc(C(=O)c3ccc(F)cc3)cc21)c1ccccc1                  =             123
16  COC(=O)c1ccccc1CC1Cc2c(C)ccc(C)c2C1=O (configuration not stated)                  =            34.7
17       Cc1ccc(SSc2ccc([N+](=O)[O-])cc2)cc1                  =            9.55

* * *

Below: a set of entries, each annotated with reported IC50.
tested on: CEM cells HIV-1 protection, formazan growth assay; assay: NCI AIDS Antiviral Assay; details: measured here: growth of uninfected CEM cells
quantity_kind: IC50

> print(dat)
                                 mol.smiles                              assay.target  quantity.kind  value.observed
1  N#C/C(=C\c1ccc([N+](=O)[O-])cc1)c1ccccc1  CEM cells HIV-1 protection, formazan growth assay           IC50         > 11 µM
2             NC(=O)c1n[nH]n(-c2ccccc2)c1=O  CEM cells HIV-1 protection, formazan growth assay           IC50        > 200 µM
3  CC(=O)Nc1ccc(NC(=O)CC(=O)Nc2ccc(NC(C)=O)cc2)cc1  CEM cells HIV-1 protection, formazan growth assay           IC50        > 200 µM
4          CNc1ccc(Cl)cc1C(=O)N1CCC[C@H]1CO  CEM cells HIV-1 protection, formazan growth assay           IC50        > 200 µM
5                       COc1onc(C)c1CC(=O)O  CEM cells HIV-1 protection, formazan growth assay           IC50        > 200 µM

* * *

tested on: CEM cells HIV-1 protection, formazan growth assay; assay: NCI AIDS Antiviral Assay; conditions: measured here: growth of uninfected CEM cells
pIC50: −log10 of the molar value.
# key: entry, value: pIC50
quantity_kind: pIC50

> print(dat)
                                   molecule  value.observed
1  CCOC(=O)c1c(N2CCOCC2)[nH]c(=O)c(C(c2ccc(N(C)C)cc2)c2c(O)c(C(=O)OCC)c(N3CCOCC3)[nH]c2=O)c1O          < 3.70
2                     NC(=S)Nc1cc(Cl)ccc1Cl          < 4.49
3  CC(C)(C)c1cc(/C=C2\CCC/C(=C\c3cc(C(C)(C)C)c(O)c(C(C)(C)C)c3)C2=O)cc(C(C)(C)C)c1O          < 3.70
4             O=C(O)c1ccc2c[n+]3ccccc3cc2c1          < 3.37
5        CCOC(=O)c1ncn2c1[nH]c(=S)c1ccccc12          < 4.58
6  Nc1ccn(C2CCC3(CO)CC23)c(=O)n1 (stereo unspecified)          < 4.30
